Assay: AUC (0 to 6 hrs) in rat at 3 mg/kg, iv
Format: ADME, organism-based
Design: time < 6 hr, dose 3 mg/kg, route intravenous
Conditions: in vivo
MEASUREMENT TYPE: AUC(0-t) at 6 h (µM·h)
Record the value in µM·h, omitting the unit from your answer.

Query string: Dear colleague, I am looking for the recorded AUC(0-t) at 6 h of the following molecule: "O=C(O)CCC(=O)N(C1CC1)[C@H]1c2cc(F)ccc2N(C(=O)c2ccc(OC(F)(F)F)cc2)[C@H]2CCC[C@H]21"
Result string: 3.35

====

Assay: Oral bioavailability in rhesus monkey at 10 mg/kg
Format: ADME, organism-based, Macaca mulatta
Settings: in vivo
MEASUREMENT TYPE: bioavailability (%)
Please give a number only; it is taken to be in %.

Query string: Form field: reported bioavailability of "O=C(O)CCC(=O)N(C1CC1)[C@H]1c2cc(F)ccc2N(C(=O)c2ccc(OC(F)(F)F)cc2)[C@H]2CCC[C@H]21"
Result string: 28

Source listed as ChEMBL document CHEMBL4196118.
